- PROTOCOL_DESCRIPTION: Plasma protein binding by equilibrium dialysis
- RECORDED_CONDITIONS: human, plasma, pH 7.4, Fraction unbound, Geomean, human plasma, 5.0 uM, n 12

>  <COMPOUND_STRUCTURE>
COc1cccc2[nH]c(C(=O)N[C@@H](CC(C)C)C(=O)N[C@@H](C[C@@H]3CCNC3=O)C(=O)CO)cc12

>  <fraction unbound at 6 h, 5 uM>
0.449

$$$$

* * *

- PROTOCOL_DESCRIPTION: Rat pharmacokinetic study
- RECORDED_CONDITIONS: male, Wistar-Hannover, rat, plasma, iv, 2 mg/kg, Vdss, 2mg/kg intravenous, individual animals

>  <COMPOUND>
COc1cccc2[nH]c(C(=O)N[C@@H](CC(C)C)C(=O)N[C@@H](C[C@@H]3CCNC3=O)C(=O)CO)cc12 [PF-00835231]

>  <Vd [L/kg]>
0.637

$$$$

* * *

- System: CYP3A4/5
- PROTOCOL_DESCRIPTION: in vitro
- RECORDED_CONDITIONS: human, microsomes, pH 7.4, Percent of Control Activity, CYP 3A4/5 (mdz), 0.214 µM, 30-Minute Preincubation

>  <COMPOUND_STRUCTURE>
COc1cccc2[nH]c(C(=O)N[C@@H](CC(C)C)C(=O)N[C@@H](C[C@@H]3CCNC3=O)C(=O)CO)cc12

>  <activity at 0.214 µM (%)>
121

$$$$

* * *

- ASSAYED_SYSTEM: CYP2C19 (Homo sapiens, UniProt P33261)
- Sequence (P33261 whole entry): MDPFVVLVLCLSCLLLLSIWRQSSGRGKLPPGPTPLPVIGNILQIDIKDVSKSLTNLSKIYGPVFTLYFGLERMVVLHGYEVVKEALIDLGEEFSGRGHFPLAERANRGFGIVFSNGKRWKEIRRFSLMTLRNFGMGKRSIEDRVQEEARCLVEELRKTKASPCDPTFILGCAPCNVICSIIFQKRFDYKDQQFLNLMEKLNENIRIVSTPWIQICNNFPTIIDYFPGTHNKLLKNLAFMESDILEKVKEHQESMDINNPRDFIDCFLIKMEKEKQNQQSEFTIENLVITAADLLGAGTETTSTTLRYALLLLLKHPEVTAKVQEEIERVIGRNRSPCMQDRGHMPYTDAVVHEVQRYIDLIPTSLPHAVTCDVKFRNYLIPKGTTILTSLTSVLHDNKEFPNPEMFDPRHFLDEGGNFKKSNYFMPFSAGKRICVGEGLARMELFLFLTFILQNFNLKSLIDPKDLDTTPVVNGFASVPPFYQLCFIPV
- PROTOCOL_DESCRIPTION: Reversible CYP inhibition in human liver microsomes
- RECORDED_CONDITIONS: human, microsomes, pH 7.4, Percent of Control Activity, CYP 2C19, 39.8 µM, Zero-Minute Preincubation
EXPERIMENTAL_READOUT: activity at 39.8 µM (%)

>  <COMPOUND>
COc1cccc2[nH]c(C(=O)N[C@@H](CC(C)C)C(=O)N[C@@H](C[C@@H]3CCNC3=O)C(=O)COP(=O)(O)O)cc12 [PF-07304814]

>  <EXPERIMENTAL_READOUT>
activity at 39.8 µM

>  <SCALE_UNIT>
%

>  <MEAS_VALUE>
94.4

$$$$

* * *

- ASSAYED_SYSTEM: CYP2C19 (Homo sapiens, UniProt P33261)
- PROTOCOL_DESCRIPTION: Reversible CYP inhibition in human liver microsomes
- RECORDED_CONDITIONS: human, microsomes, pH 7.4, Percent of Control Activity, CYP 2C19, 0.214 µM, 30-Minute Preincubation

>  <COMPOUND_STRUCTURE>
COc1cccc2[nH]c(C(=O)N[C@@H](CC(C)C)C(=O)N[C@@H](C[C@@H]3CCNC3=O)C(=O)CO)cc12

>  <SCALE_UNIT>
%

>  <activity at 0.214 µM>
99

$$$$

* * *

- PROTOCOL_DESCRIPTION: Solubility measurement
- RECORDED_CONDITIONS: deionized water and pH buffers
Listed here: items and their measured solubility at 48 h.

>  <COMPOUND_STRUCTURE>
COc1cccc2[nH]c(C(=O)N[C@@H](CC(C)C)C(=O)N[C@@H](C[C@@H]3CCNC3=O)C(=O)COP(=O)(O)O)cc12

>  <solubility at 48 h>
> 200 mg/mL

$$$$
>  <COMPOUND_STRUCTURE>
COc1cccc2[nH]c(C(=O)N[C@@H](CC(C)C)C(=O)N[C@@H](C[C@@H]3CCNC3=O)C(=O)CO)cc12

>  <solubility at 48 h>
< 0.1 mg/mL

$$$$
